Test system: hepatocytes
Experiment: Cell damage of hepatocytes by hydrogenperoxide (FIG. 5)
Type: cell-based
Details: 1 mM/l in N4 solution + 20 mM/l H2O2
test.readout: protection from cell damage by hydrogenperoxide

| compound | reported.measurement |
| --- | --- |
| Cc1cc2ccccc2c(=O)n1O [2-hydroxy-3-methyl-isocarbosteryl, 2-hydroxy-3-methyl-isocarbostyril] | protection |
| CN(O)C(=O)c1ccc(Cl)cc1 [4-chloro-N-methyl-benzohydroxamic acid] | protection |
| COc1ccc(C(=O)N(C)O)cc1OC | protection |
| COc1cc(C(=O)N(C)O)cc(OC)c1OC | protection |

Reference source: patent US9603354B2
